Tested on: MCF7
Experiment: Cytostatic activity against human MCF7 cells after 4 days by MTT assay
Type: functional, cell-based
Details: MCF7, 96 h
measurement name: IC50 (µM)
Please respond with the number in µM and leave the unit unwritten.

Previously resolved entries follow.
- compound: "COc1cccc2c1C(=O)c1c(O)c3c(c(O)c1C2=O)C[C@@](O)(/C(C)=N/OCC(=O)NCCCC[C@H](NC(=O)[C@H](Cc1c[nH]c2ccccc12)NC(=O)[C@H](CC(=O)O)NC(=O)[C@H](Cc1cnc[nH]1)NC(=O)[C@H](CCCCNC(=O)[C@H](CCC(=O)O)NC(=O)c1ccc(N(C)Cc2cnc4nc(N)nc(N)c4n2)cc1)NC(=O)[C@H](Cc1c[nH]c2ccccc12)NC(=O)[C@H](Cc1cnc[nH]1)NC(=O)[C@@H]1CCC(=O)N1)C(=O)N1CCC[C@H]1C(=O)NCC(N)=O)C[C@@H]3O[C@H]1C[C@H](N)[C@H](O)[C@H](C)O1"
  study target: "MCF7"
  unit tag: "µM"
  IC50: 5.8
- compound: "COc1cccc2c1C(=O)c1c(O)c3c(c(O)c1C2=O)C[C@@](O)(/C(C)=N/OCC(=O)NCCCC[C@H](NC(=O)[C@H](CCC(=O)O)NC(=O)c1ccc(N(C)Cc2cnc4nc(N)nc(N)c4n2)cc1)C(=O)NCCCC[C@H](NC(=O)[C@H](Cc1c[nH]c2ccccc12)NC(=O)[C@H](CC(=O)O)NC(=O)[C@H](Cc1cnc[nH]1)NC(=O)[C@H](CO)NC(=O)[C@H](Cc1c[nH]c2ccccc12)NC(=O)[C@H](Cc1cnc[nH]1)NC(=O)[C@@H]1CCC(=O)N1)C(=O)N1CCC[C@H]1C(=O)NCC(N)=O)C[C@@H]3O[C@H]1C[C@H](N)[C@H](O)[C@H](C)O1"
  study target: "MCF7"
  unit tag: "µM"
  IC50: 5.4

Problem: Using the record for COc1cccc2c1C(=O)c1c(O)c3c(c(O)c1C2=O)C[C@@](O)(C(C)=O)C[C@@H]3O[C@H]1C[C@H](N)[C@H](O)[C@H](C)O1 [DAUNORUBICIN] , report its IC50.
Solution: 0.4

Origin of values: ChEMBL document CHEMBL2021806
